ASSAYED_SYSTEM: Cannabinoid receptor 2 (Homo sapiens)
Sequence (P34972 whole entry): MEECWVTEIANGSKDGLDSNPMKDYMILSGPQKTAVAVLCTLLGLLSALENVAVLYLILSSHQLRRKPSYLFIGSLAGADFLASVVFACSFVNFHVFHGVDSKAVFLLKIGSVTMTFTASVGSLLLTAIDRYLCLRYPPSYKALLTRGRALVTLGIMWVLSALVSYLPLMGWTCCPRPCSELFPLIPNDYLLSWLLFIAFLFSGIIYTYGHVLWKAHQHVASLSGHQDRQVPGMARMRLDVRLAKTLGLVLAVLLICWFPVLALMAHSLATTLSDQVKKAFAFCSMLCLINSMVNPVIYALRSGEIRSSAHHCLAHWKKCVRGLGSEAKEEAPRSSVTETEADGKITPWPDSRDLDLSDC
PROTOCOL: Antagonist activity at CB2 receptor (unknown origin)
Kindly supply the reported EC50 values for the records listed here.

Each of the following entries comes with a recorded value; kindly state EC50 for each.
1. O=C(O)c1cc(-c2ccc(C3CCNCC3)cc2)cc(-c2cn(-c3ccc(C(F)(F)F)cc3)nn2)c1
2. O=C(O)c1cc(-c2ccc(C3CCNCC3)cc2)c2ccc(-c3ccc(C(F)(F)F)cc3)cc2c1 [PPTN]

["> 10 µM", "> 10 µM"]

* * *

ASSAYED_SYSTEM: Voltage-gated inwardly rectifying potassium channel KCNH2 (Homo sapiens)
Sequence (Q12809 whole entry): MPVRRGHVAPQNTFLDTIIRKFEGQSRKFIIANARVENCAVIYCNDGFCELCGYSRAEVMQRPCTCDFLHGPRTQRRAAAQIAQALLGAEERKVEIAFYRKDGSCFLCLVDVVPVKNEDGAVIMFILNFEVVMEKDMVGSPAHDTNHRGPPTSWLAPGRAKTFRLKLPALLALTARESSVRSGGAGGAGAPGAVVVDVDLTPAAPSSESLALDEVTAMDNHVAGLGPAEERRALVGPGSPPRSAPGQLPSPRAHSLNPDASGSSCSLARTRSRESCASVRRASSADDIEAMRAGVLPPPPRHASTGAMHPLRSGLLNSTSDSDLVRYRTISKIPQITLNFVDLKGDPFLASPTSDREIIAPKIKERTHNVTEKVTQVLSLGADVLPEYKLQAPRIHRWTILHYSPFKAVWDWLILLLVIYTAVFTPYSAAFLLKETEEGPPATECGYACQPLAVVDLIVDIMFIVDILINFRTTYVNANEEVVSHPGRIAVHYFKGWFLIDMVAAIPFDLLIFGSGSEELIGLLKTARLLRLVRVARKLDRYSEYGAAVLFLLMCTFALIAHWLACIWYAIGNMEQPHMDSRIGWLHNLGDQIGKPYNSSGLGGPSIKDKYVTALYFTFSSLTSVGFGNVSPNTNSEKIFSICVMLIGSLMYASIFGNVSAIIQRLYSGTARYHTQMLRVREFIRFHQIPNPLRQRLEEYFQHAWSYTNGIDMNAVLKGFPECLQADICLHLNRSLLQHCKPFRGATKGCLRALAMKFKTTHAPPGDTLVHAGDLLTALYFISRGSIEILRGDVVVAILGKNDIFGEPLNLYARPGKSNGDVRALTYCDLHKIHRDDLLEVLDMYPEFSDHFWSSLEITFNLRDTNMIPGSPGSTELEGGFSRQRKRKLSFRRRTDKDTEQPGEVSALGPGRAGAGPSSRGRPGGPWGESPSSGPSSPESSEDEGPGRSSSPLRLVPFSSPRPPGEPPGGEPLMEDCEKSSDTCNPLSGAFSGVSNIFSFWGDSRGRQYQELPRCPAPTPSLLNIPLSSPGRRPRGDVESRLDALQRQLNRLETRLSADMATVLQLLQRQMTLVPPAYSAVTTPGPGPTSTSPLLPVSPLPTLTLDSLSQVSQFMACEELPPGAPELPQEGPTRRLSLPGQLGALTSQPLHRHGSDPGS
QUANTITY_NAME: pIC50
Answers are plain numbers, as −log10 of the molar value.

Value of pIC50 reported for the molecule "O=C(O)c1cc(-c2ccc(C34CCN(CC3)CC4)cc2)cc(-n2cc(-c3ccc(C(F)(F)F)cc3)nn2)c1" is 4.77

* * *

ASSAYED_SYSTEM: P2Y purinoceptor 14 (Homo sapiens)
PROTOCOL: Inhibition of MRS4174 binding to human P2Y14R expressed in CHO cells pre-incubated for 30 mins before MRS4174 addition and further incubated for 30 mins at pH 7.4 by flow cytomtery based competitive fluorescence assay
Type: cell-based
Exercise: for every item that follows, state its recorded pIC50.
Give bare numbers, as −log10 of the molar value.

Hi, could you look up pIC50 for each item in my list?
1. O=C(O)c1cc(-c2ccc(C34CCNCC3C4)cc2)cc(-n2cc(-c3ccc(C(F)(F)F)cc3)nn2)c1 (stereo unspecified)
2. O=C(O)c1cc(-c2ccc(C34CCNCC3C4(F)F)cc2)cc(-n2cc(-c3ccc(C(F)(F)F)cc3)nn2)c1 (stereo unspecified)
3. O=C(O)c1cc(-c2ccc(C34CCN(CC3)CC4)cc2)cc(-n2cc(-c3ccc(C(F)(F)F)cc3)nn2)c1
4. C[N+]12CCC(c3ccc(-c4cc(C(=O)O)cc5cc(-c6ccc(C(F)(F)F)cc6)ccc45)cc3)(CC1)CC2

1: 6.44; 2: 6.19; 3: 6.98; 4: 7.42

* * *

PROTOCOL: Drug level in rat at 10 mg/kg, ip after 12 hrs
Type: ADME, organism-based
REPORTED_CONDITIONS: in vivo
QUANTITY_NAME: Drug uptake

O=C(O)c1cc(-c2ccc(C34CCN(CC3)CC4)cc2)c2ccc(-c3ccc(C(F)(F)F)cc3)cc2c1 | 200 to 400 ng/kg

Shift focus to the following entry.
response.value for "O=C(O)c1cc(-c2ccc(C34CCN(CC3)CC4)cc2)cc(-n2cc(-c3ccc(C(F)(F)F)cc3)nn2)c1" (field: Drug uptake) = 200 to 400 ng/kg

* * *

ASSAYED_SYSTEM: Sigma non-opioid intracellular receptor 1 (Homo sapiens)
Sequence (Q99720 whole entry): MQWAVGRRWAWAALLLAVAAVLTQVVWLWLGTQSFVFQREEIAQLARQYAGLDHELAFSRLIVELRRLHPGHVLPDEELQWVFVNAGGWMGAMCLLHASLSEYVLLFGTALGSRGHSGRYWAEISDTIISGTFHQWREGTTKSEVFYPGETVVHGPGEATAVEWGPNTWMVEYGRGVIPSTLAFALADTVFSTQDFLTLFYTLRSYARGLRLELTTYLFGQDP
PROTOCOL: Binding affinity to sigma 1 receptor (unknown origin)
QUANTITY_NAME: pKi
One number for each entry, as −log10 of the molar value.

Lab entry: Sigma non-opioid intracellular receptor 1 (Homo sapiens) assay, compound "NC(=O)c1ccc(-c2cc(C(=O)O)cc(-c3cn(-c4ccc(C(F)(F)F)cc4)nn3)c2)cc1" , pKi = 6.30

* * *

ASSAYED_SYSTEM: UniProt:Q15391
Sequence (Q15391 whole entry): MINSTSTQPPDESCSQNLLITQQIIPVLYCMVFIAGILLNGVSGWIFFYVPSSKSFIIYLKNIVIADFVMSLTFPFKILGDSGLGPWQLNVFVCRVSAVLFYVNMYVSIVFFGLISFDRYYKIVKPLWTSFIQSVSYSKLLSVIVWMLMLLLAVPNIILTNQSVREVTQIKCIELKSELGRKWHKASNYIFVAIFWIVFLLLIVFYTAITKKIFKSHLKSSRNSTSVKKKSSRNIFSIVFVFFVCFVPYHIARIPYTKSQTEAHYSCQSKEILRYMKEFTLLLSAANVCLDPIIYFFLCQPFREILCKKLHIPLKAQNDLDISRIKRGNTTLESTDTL
PROTOCOL: cell-based
Description: Inhibition of MRS4174 binding to human P2Y14R expressed in CHO cells pre-incubated for 30 mins before MRS4174 addition and further incubated for 30 mins at pH 6 by flow cytomtery based competitive fluorescence assay
QUANTITY_NAME: pIC50
Give bare numbers, as −log10 of the molar value.

Entry "O=C(O)c1cc(-c2ccc(C34CCN(CC3)CC4)cc2)c2ccc(-c3ccc(C(F)(F)F)cc3)cc2c1" ; pIC50 = 7.07
